- Test Target: GST-Rok-C97-191 (Bacillus subtilis subsp. subtilis str. …, UniProt O34857 97-191)
- Sequence: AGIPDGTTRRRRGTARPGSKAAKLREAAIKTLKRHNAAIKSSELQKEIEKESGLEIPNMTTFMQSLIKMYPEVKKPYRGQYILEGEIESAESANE
- Measurement Description: protein binding microarray; high values mean tight binding
- Conditions: protein: recombinant; tags: GST (pTH5325, pDEST15-Magic modified); dsDNA, one strand shown
In all, about 33,000 sequences were measured (“e-score”: median about -0.038, highest 2% from about 0.33 on). The full list was thinned out, with the highest values kept by preference.
With a cut-off of 0.2 E-score, any binding signal strictly below it is called 1; any binding signal meeting it or above is called 0.

Example entries begin here.
INSERT INTO results (sequence_code, class) VALUES
  ('GCTGTTTA', 1),
  ('ACACTAGT', 0);

Dear colleague, could you confirm whether binding signal of GTCAATTA falls below 0.2 E-score? Thanks. 1

Dear colleague, could you confirm whether binding signal of AAATGTAG falls below 0.2 E-score? Thanks. 0

* * *

Measured binding signal by item
- Test Target: GST-Rok-C97-191 (Bacillus subtilis subsp. subtilis str. …, UniProt O34857 97-191)
- Sequence: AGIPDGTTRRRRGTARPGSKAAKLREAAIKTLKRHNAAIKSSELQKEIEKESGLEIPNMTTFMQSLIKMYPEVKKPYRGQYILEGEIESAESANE
- Measurement Description: protein binding microarray; high values mean tight binding
- Conditions: protein: recombinant; tags: GST (pTH5325, pDEST15-Magic modified); dsDNA, one strand shown
Whole data set: some 33,000 sequences, median “e-score” near -0.038, cut for the highest 2% near 0.33. This is one part of a sample in which the highest values are shown more often than they occur.

INSERT INTO measurements (sequence_code, recorded_result) VALUES
  ('CAATAAAA', '0.239 E-score');

I would be grateful if you could share the reported binding signal for CACTAATC . 0.1 E-score

I would be grateful if you could share the reported binding signal for ACTTATAT . 0.29 E-score

I would be grateful if you could share the reported binding signal for CACTAATA . 0.33 E-score

I would be grateful if you could share the reported binding signal for ATATATGA . 0.329 E-score

I would be grateful if you could share the reported binding signal for CTATATAA . 0.359 E-score

I would be grateful if you could share the reported binding signal for CTGTATAA . 0.215 E-score

I would be grateful if you could share the reported binding signal for TATTAATA . 0.352 E-score

I would be grateful if you could share the reported binding signal for ACTTATAA . 0.338 E-score

I would be grateful if you could share the reported binding signal for GAATAAAA . 0.119 E-score

I would be grateful if you could share the reported binding signal for CATTAATA . 0.186 E-score

* * *

- Test Target: GST-Rok-C97-191 (Bacillus subtilis subsp. subtilis str. …, UniProt O34857 97-191)
- Sequence: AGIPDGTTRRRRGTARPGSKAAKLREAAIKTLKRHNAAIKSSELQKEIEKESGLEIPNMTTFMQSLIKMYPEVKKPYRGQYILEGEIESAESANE
- Measurement Description: protein binding microarray; Rok is a gene silencer of Bacillus subtilis; high values mean tight binding
- Conditions: protein: recombinant; tags: GST (pTH5325, pDEST15-Magic modified); dsDNA, one strand shown
The full ranking holds about 33,000 sequences; the median of “e-score” is about -0.038, and the highest 2% start at about 0.33. The full list was thinned out, with the highest values kept by preference.
Property: binding signal (E-score)
State the answer as a number, implicitly in E-score.

I would be grateful if you could share the reported binding signal for ATTTTACG . 0.268

I would be grateful if you could share the reported binding signal for GATATATC . 0.403

I would be grateful if you could share the reported binding signal for TCAATTAA . 0.161

I would be grateful if you could share the reported binding signal for AGTAGATC . 0.323

I would be grateful if you could share the reported binding signal for ACCTAACT . 0.128

I would be grateful if you could share the reported binding signal for GGTAGATA . 0.432

I would be grateful if you could share the reported binding signal for ATAATTAA . 0.298

I would be grateful if you could share the reported binding signal for CTAAGTAG . 0.275

The measurements presented in this section are drawn from paper PMC6212790.
